target or test system: UniProt:Q07343
Sequence (Q07343 whole entry): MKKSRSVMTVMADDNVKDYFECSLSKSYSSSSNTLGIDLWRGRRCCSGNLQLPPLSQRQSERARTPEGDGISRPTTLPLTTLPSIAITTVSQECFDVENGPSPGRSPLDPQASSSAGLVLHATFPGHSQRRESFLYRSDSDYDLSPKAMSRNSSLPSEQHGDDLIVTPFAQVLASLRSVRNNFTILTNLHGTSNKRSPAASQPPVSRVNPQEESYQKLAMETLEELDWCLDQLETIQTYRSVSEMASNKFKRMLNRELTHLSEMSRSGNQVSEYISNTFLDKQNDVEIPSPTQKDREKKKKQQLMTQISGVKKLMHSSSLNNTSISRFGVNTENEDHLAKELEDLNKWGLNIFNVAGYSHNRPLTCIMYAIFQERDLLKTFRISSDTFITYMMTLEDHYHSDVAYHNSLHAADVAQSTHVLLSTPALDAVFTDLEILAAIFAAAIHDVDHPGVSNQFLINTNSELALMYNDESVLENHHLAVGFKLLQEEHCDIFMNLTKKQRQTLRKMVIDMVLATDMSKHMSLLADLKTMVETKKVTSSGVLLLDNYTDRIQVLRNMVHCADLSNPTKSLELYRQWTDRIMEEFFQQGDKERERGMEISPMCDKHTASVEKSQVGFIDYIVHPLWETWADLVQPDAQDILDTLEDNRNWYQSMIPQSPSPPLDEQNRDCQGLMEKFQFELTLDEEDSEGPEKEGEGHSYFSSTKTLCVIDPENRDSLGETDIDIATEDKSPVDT
assay explanation: Inhibition of human recombinant PDE4B2 assessed as inhibition of cAMP hydrolysis by colorimetric assay
Provide the reported IC50 of each item.
Give bare numbers, in nM.

Example entries and their recorded answers appear below.
1) COc1ccc(C2=NN(CCCCCCOc3ccc(CC(C)NCC(O)c4ccc(O)c(NC=O)c4)cc3)C(=O)C3CCCCC23)cc1OC (racemic): 104
2) COc1ccc(C2=NN(CCCCCOc3ccc(CC(C)NCC(O)c4ccc(O)c(NC=O)c4)cc3)C(=O)C3CCCCC23)cc1OC (centres undefined): 118
3) COc1ccc(C2=NN(CCCCOc3ccc(CC(C)NCC(O)c4ccc(O)c(NC=O)c4)cc3)C(=O)C3CCCCC23)cc1OC (centres undefined): 117

# context switch: different compound, same IC50
Report IC50, nothing else, for this compound: COc1ccc(C2=NN(CCCCCCOc3ccc(C[C@@H](C)NC[C@H](O)c4ccc(O)c(NC=O)c4)cc3)C(=O)C3CCCCC23)cc1OC (some centres undefined)
92

====

target or test system: Beta-2 adrenergic receptor (Cavia porcellus)
Sequence (Q8K4Z4 whole entry): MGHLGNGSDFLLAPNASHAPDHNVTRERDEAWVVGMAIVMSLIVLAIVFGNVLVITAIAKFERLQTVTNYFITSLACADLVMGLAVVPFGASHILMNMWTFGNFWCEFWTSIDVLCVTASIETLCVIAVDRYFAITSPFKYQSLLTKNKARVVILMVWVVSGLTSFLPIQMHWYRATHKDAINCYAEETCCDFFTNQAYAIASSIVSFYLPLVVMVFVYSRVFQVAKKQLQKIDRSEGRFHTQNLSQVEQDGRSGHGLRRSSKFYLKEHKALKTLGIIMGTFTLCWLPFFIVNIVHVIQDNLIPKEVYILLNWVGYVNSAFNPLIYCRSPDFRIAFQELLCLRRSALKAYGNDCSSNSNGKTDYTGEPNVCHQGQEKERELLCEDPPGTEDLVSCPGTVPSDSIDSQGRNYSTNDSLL
assay explanation: Agonist activity at guinea pig trachea beta2-adrenergic receptor assessed as relaxation of histamine-induced tracheal ring contraction
Give pEC50 for every item shown.
Give bare numbers, as −log10 of the molar value.

1) COc1ccc(C2=NN(CCCCCOc3ccc(CC(C)NCC(O)c4ccc(O)c(NC=O)c4)cc3)C(=O)C3CCCCC23)cc1OC (centres undefined): 7.90
2) COc1ccc(C2=NN(CCCCCCOc3ccc(C[C@@H](C)NC[C@H](O)c4ccc(O)c(NC=O)c4)cc3)C(=O)C3CCCCC23)cc1OC (some centres undefined): 8.98

For each of the molecules below, state pEC50.
1. COc1ccc(C2=NN(CCCCOc3ccc(CC(C)NCC(O)c4ccc(O)c(NC=O)c4)cc3)C(=O)C3CCCCC23)cc1OC (centres undefined)
2. COc1ccc(C2=NN(CCCCCCOc3ccc(CC(C)NCC(O)c4ccc(O)c(NC=O)c4)cc3)C(=O)C3CCCCC23)cc1OC (racemic)

1. 7.99
2. 8.30
